test system: adjuvant-induced arthritis in female Lewis rats; details: injected paw; p.o. q.d.; Compounds 1, 2, 4, 6 30 mg/kg/day, Compound 3 50, Compound 5 100, indomethacin 2; mean ± SD
Recorded Metric: Change in Primary Foot Volume Day 4-0 (µL)

1) Cc1cccc(Nc2cc(Cl)nc(SCC(=O)O)n2)c1C [Compound 4, WY-14643, reference compound]
2133
2) CCCc1cc(Oc2ccccc2)ccc1OCCc1cc2cc(CC(=O)O)ccc2[nH]1
1642
3) O=C(O)c1c(Sc2ccccc2)c2cc(Cl)ccc2n1Cc1ccc(Cl)cc1
1853

* * *

Biological target: recombinant human PPARδ (GST-PPARδ) (Homo sapiens, UniProt Q03181)
Construct: The full length human cDNAs for PPARδ and PPARα were subcloned into the pGEX-KT expression vector; made in house; host or cells: E. coli
Sequence (Q03181 1-441): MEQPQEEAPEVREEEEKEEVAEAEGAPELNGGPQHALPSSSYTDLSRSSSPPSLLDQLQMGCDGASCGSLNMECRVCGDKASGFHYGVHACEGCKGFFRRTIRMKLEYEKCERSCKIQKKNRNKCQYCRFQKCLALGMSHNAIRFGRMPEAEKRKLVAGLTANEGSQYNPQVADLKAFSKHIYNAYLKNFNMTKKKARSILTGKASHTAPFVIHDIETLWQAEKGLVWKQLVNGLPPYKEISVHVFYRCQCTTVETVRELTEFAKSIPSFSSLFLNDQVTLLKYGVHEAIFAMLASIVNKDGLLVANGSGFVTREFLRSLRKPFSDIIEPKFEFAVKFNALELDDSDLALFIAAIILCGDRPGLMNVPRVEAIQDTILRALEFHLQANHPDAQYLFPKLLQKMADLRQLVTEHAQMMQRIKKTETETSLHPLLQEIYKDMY
Experiment: Scintillation Proximity Assay, displacement of [3H2]Compound B from PPARδ
Assay type: binding
Settings: human PPARδ binding; read-out: IC50 (μM: SPA or BND) Delta
Recorded Metric: IC50 (µM)

1) CCCc1cc(Oc2ccccc2)ccc1OCCc1cc2cc(CC(=O)O)ccc2[nH]1
15
